- Test system: CD2F1 mice, L1210 leukemia ip, survival T/C
- procedure-text: NCI In Vivo Anticancer Drug Screen. Data for tumor model L1210 Leukemia (intraperitoneal) in CD2F1 (CDF1) mice
- condition-label: endpoint: mean survival time; dose: 100.0 mg/kg/injection; schedule: Q04DX003 (ip); vehicle: other
Inconclusive results and toxic doses are left out. The calls were made as follows: active = survival T/C of 150% or more; inactive = T/C below 125% in these data.
Permitted responses: yes = active, no = inactive

[[record]]
compound = "O=[N+]([O-])c1cccc(OCCCOc2ccccc2)c1"
label_value = "no"

[[record]]
compound = "COc1ccc(S(=O)(=O)N/N=C/C(=O)O)cc1"
label_value = "yes"

[[record]]
compound = "Cc1c(C#N)sc2ccccc12"
label_value = "no"

[[record]]
compound = "CC1(C2CC(=O)N(OCc3ccccc3)C2=O)OCCO1 (configuration not stated)"
label_value = "no"

[[record]]
compound = "Oc1ccccc1C=Nc1ccccc1.Oc1ccccc1C=Nc1ccccc1.[Co]"
label_value = "no"


Any idea what this test logged for C=COCCCCCCCCCCCCCCCCCC ?
no

Let us now turn to COc1ccc(NCCOc2ccccc2Br)cc1
no

* * *

- Tested on: CD2F1 mice, L1210 leukemia ip, survival T/C
- procedure-text: NCI In Vivo Anticancer Drug Screen. Data for tumor model L1210 Leukemia (intraperitoneal) in CD2F1 (CDF1) mice
- condition-label: endpoint: mean survival time; dose: 150.0 mg/kg/injection; schedule: Q01DX001 (ip); vehicle: other; higher = longer survival
Toxic doses and inconclusive results are not listed.
Here, each record is paired with measured T/C data.

[[record]]
molecule = "Cc1ccc(/C=N/N2C(=O)CSC2=S)cc1"
experimental_value = "97 % of control"

[[record]]
molecule = "CN(C)Cc1cc(O)cc(CN(C)C)c1O"
experimental_value = "96 % of control"

[[record]]
molecule = "COc1ccc(Cl)c2c1C1(CC(CC=O)C2)OCCO1 (centres undefined)"
experimental_value = "94 % of control"


Which measured T/C belongs to COc1ccccc1C=NC(C)(C)CO , tested on CD2F1 mice, L1210 leukemia ip, survival T/C?
97 % of control

Let us now turn to c1ccc2sc(NN=c3c4ccccc4sc4ccccc34)nc2c1
100 % of control

Let us now turn to CC(=O)Nc1nc(Cl)nc2c1ncn2Cc1ccccc1
96 % of control

Let us now turn to C=CCOP(=O)(OCC=C)C(Cl)(Cl)Cl
97 % of control

Let us now turn to O=C(NCCF)NC1CCSc2ccccc21 (centres undefined)
103 % of control

Let us now turn to CC(=O)c1ccc(Oc2ccc(/C(C)=N\N=C(N)N)cc2)cc1
112 % of control

* * *

- Tested on: CD2F1 mice, L1210 leukemia ip, survival T/C
- procedure-text: NCI In Vivo Anticancer Drug Screen. Data for tumor model L1210 Leukemia (intraperitoneal) in CD2F1 (CDF1) mice
- condition-label: endpoint: mean survival time; dose: 100.0 mg/kg/injection; schedule: Q01DX009 (ip); vehicle: saline; higher = longer survival
Toxic doses and inconclusive results are not listed.
metric: T/C

Which T/C value belongs to CCOC(=O)Nc1cc(NC(C)CCCN(CC)CC)c2ncc(-c3cc(OC)c(OC)c(OC)c3)nc2n1 (stereo unspecified) (tested in a mixture with another compound) ?
89 % of control

Let us now turn to Cc1nc2n[nH]c(N)c2nc1C
100 % of control

Let us now turn to COC(=O)C1C2CCC(COC(C)=O)(O2)C1C(=O)O (stereo unspecified)
96 % of control

Let us now turn to CCN=C(N)SCCS(=O)(=O)O
97 % of control

Let us now turn to OCC(F)(F)F
123 % of control

Let us now turn to CN(C)C(CCN1CCCCC1)CN1CCCCC1 (stereo unspecified)
101 % of control
